- subject.of.test: Adrenergic β2 (Homo sapiens, UniProt P07550)
- Construct: Adherent H292 cells are removed from tissue culture flasks by treatment with Accutase™ cell detachment solution; endogenous in cells; host or cells: H292 cells
- Sequence (P07550 whole entry): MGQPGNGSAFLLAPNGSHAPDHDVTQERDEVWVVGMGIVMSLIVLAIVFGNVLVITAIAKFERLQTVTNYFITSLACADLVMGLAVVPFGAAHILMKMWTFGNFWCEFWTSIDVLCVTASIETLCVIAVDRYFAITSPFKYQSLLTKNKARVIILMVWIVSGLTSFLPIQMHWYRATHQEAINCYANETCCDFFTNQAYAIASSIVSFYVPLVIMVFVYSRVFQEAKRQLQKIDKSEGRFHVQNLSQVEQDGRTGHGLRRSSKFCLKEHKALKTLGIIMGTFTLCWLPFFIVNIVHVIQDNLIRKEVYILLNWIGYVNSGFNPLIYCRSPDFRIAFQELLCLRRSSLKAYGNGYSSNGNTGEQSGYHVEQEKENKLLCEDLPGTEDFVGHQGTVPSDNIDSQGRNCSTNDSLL
- test.method.notes: Adrenergic β2 mediated cAMP production in H292 cells, single concentration 1 μM
- Assay type: cell-based
- condition: NCI-H292, 1 μM compound, cAMP as percentage of the maximum response generated by 1E-07M formoterol, read-out: β2 % effect @1 uM
# maps each entry to its percent of formoterol maximum response at 1 µM
// units = %; emit number, no label

[
  {
    "compound": "O=C1COc2c(CCNCCN(C(=O)CCOCCc3cccc(CN4CCC5(CC4)CN(C(=O)c4cnccc4C(F)(F)F)CCO5)c3)C3CCCCC3)ccc(O)c2N1 [Example 121]",
    "measured": 84
  }
]

Prompt: Recorded percent of formoterol maximum response at 1 µM for CC(C)C[C@H](O)C(=O)N1CCOC2(CCN(Cc3cccc(CCOCCC(=O)N(CCNCCc4ccc(O)c5c4OCC(=O)N5)C4CCCCC4)c3)CC2)C1 [Example 137] , please?
Response: 88

Prompt: Recorded percent of formoterol maximum response at 1 µM for CCc1cc(C(=O)N2CCOC3(CCN(Cc4cccc(CCOCCC(=O)N(CCNCCc5ccc(O)c6c5OCC(=O)N6)C5CCCCC5)c4)CC3)C2)cs1 [Example 144] , please?
Response: 100

Prompt: Recorded percent of formoterol maximum response at 1 µM for O=C1COc2c(CCNCCN(C(=O)CCOCCc3cccc(CN4CCC5(CC4)CN(C(=O)c4cccs4)CCO5)c3)C3CCCCC3)ccc(O)c2N1 [Example 153] , please?
Response: 98

Prompt: Recorded percent of formoterol maximum response at 1 µM for O=C1COc2c(CCNCCN(C(=O)CCOCCc3cccc(CN4CCC5(CC4)CN(C(=O)COCc4nc6ccccc6s4)CCO5)c3)C3CCCCC3)ccc(O)c2N1 [Example 126] , please?
Response: 103

Prompt: Recorded percent of formoterol maximum response at 1 µM for O=C1COc2c(CCNCCN(C(=O)CCOCCc3cccc(CN4CCC5(CC4)CN(C(=O)CC46CC7CC(CC(O)(C7)C4)C6)CCO5)c3)C3CCCCC3)ccc(O)c2N1 [Example 116] , please?
Response: 80

Prompt: Recorded percent of formoterol maximum response at 1 µM for O=C1COc2c(CCNCCN(C(=O)CCOCCc3cccc(CN4CCC5(CC4)CN(C(=O)c4n[nH]c6ccccc46)CCO5)c3)C3CCCCC3)ccc(O)c2N1 [Example 120] , please?
Response: 97

Prompt: Recorded percent of formoterol maximum response at 1 µM for O=C1COc2c(CCNCCN(C(=O)CCOCCc3cccc(CN4CCC5(CC4)CN(C(=O)c4cccc(F)c4F)CCO5)c3)C3CCCCC3)ccc(O)c2N1 [Example 110] , please?
Response: 99

Prompt: Recorded percent of formoterol maximum response at 1 µM for Cc1csc(C(=O)N2CCOC3(CCN(Cc4cccc(CCOCCC(=O)N(CCNCCc5ccc(O)c6c5OCC(=O)N6)C5CCCCC5)c4)CC3)C2)c1 [Example 138] , please?
Response: 92

Prompt: Recorded percent of formoterol maximum response at 1 µM for CCCC(C)C(=O)N1CCOC2(CCN(Cc3cccc(CCOCCC(=O)N(CCNCCc4ccc(O)c5c4OCC(=O)N5)C4CCCCC4)c3)CC2)C1 (centres unmarked) [Example 160] , please?
Response: 79

Prompt: Recorded percent of formoterol maximum response at 1 µM for O=C1COc2c(CCNCCN(C(=O)CCOCCc3cccc(CN4CCC5(CC4)CN(C(=O)c4ccc(F)cc4F)CCO5)c3)C3CCCCC3)ccc(O)c2N1 [Example 162] , please?
Response: 95

Prompt: Recorded percent of formoterol maximum response at 1 µM for O=C1COc2c(CCNCCN(C(=O)CCOCCc3cccc(CN4CCC5(CC4)CN(C(=O)c4cc6ccccn6n4)CCO5)c3)C3CCCCC3)ccc(O)c2N1 [Example 146] , please?
Response: 96

Prompt: Recorded percent of formoterol maximum response at 1 µM for O=C1COc2c(CCNCCN(C(=O)CCOCCc3cccc(CN4CCC5(CC4)CN(C(=O)c4cc6cc(F)ccc6[nH]4)CCO5)c3)C3CCCCC3)ccc(O)c2N1 [Example 107] , please?
Response: 101
